Test system: HCI03 (cells of an ER-positive luminal breast cancer xenograft)
assay-overview: cell viability (% of vehicle); higher = less cytotoxic;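 also: PDX cells carrying CMV promoter-driven luciferase, viability read as total photon flux per second by IVIS imaging following D-luciferin, vehicle control 0.1% DMSO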
experimental-conditions: 10 µM; 72 h
Give measured cell viability for each item. Keep answers brief.

Need cell viability, item N=C(N)NCCCC[C@@H]1NC(=O)CCSSC[C@@H](C(N)=O)NC(=O)[C@@H]2CCCN2C(=O)[C@H](Cc2c[nH]c3ccccc23)NC(=O)[C@H](CC(=O)O)NC(=O)CNC1=O [Eptifibatide]
148

Also Cl.Clc1ccc2nsnc2c1NC1=NCCN1 [Tizanidine HCl] , if possible.
125

Moving on to the next compound: CCCCS(=O)(=O)NC(Cc1ccc(OCCCCC2CCNCC2)cc1)C(=O)O.Cl.O (stereo not given) [Tirofiban hydrochloride monohydrate]
123

Moving on to O=c1[nH]c(=O)n(C2CC(O)C(CO)O2)cc1F (stereo not given)
103

Same thing, different compound: `O=C1CCc2ccc(OCCCCN3CCN(c4cccc(Cl)c4Cl)CC3)cc2N1`
127

###

Test system: HCI11 (cells of an ER-positive luminal breast cancer xenograft)
assay-overview: cell viability (% of vehicle); higher = less cytotoxic
experimental-conditions: 10 µM; 72 h
For each record, check the reported cell viability: if it is below 90 write true (1), else write false (0).

For OCC(O)C(O)C(O)CO (stereo not drawn) , is the recorded cell viability below the cut-off of 90?
false (0)

Try the molecule Cl.Cl.NCCc1cnc[nH]1 [Histamine 2HCl]
false (0)

Try this molecule next: C[N+]1(C)[C@@H]2C[C@@H](OC(=O)C(O)(c3cccs3)c3cccs3)C[C@H]1[C@@H]1O[C@@H]12.[Br-] [Tiotropium Bromide]
false (0)

Thanks! And CS(=O)(=O)c1ccc(C(O)C(CO)NC(=O)C(Cl)Cl)cc1 (stereo not drawn) ?
true (1)

Cool, now Br.Br.Br.Br.Br.Cc1cc(N2CCN(C3CNC(C(=O)N4CCSC4)C3)CC2)n(-c2ccccc2)n1.Cc1cc(N2CCN(C3CNC(C(=O)N4CCSC4)C3)CC2)n(-c2ccccc2)n1 (stereo not drawn) [Teneligliptin hydrobromide]
true (1)

Check CCC(C)n1ncn(-c2ccc(N3CCN(c4ccc(OCC5COC(Cn6cncn6)(c6ccc(Cl)cc6Cl)O5)cc4)CC3)cc2)c1=O (stereo not drawn) too.
true (1)

Moving on to Nc1ncnc2c1ncn2C1OC(CO)C(O)C1O (stereo not drawn) [Adenosine]
false (0)

One more molecule: OCC(O)C(O)C(O)C(O)CO (stereo not drawn)
true (1)

###

Tested on: HCI01 (cells of a triple-negative basal-like breast cancer xenograft)
assay-overview: cell viability (% of vehicle); higher = less cytotoxic
experimental-conditions: 10 µM; 72 h
Label True when cell viability is strictly below 100; otherwise label False.

Lab log: compare recorded cell viability with 100; is it strictly lower for O=C1CCC(C(=O)N2CSCC2C(=O)O)N1 (centres undefined) ?
True

What do we get for CCOc1cc(N)c(Cl)cc1C(=O)NCC1CN(Cc2ccc(F)cc2)CCO1.O=C(O)CC(O)(CC(=O)O)C(=O)O (centres undefined) [Mosapride Citrate] ?
False

Next entry: Nc1cccc2c1C(=O)N(C1CCC(=O)NC1=O)C2=O (centres undefined) [Pomalidomide (CC-4047)]
False

Next entry: Cc1cn(C2CC(O)C(CO)O2)c(=O)[nH]c1=O (centres undefined)
False

Entry CCCC(NC(=O)C1C2CCCC2CN1C(=O)C(NC(=O)C(NC(=O)c1cnccn1)C1CCCCC1)C(C)(C)C)C(=O)C(=O)NC1CC1 (centres undefined) please
False

Field entry: COc1nc(C)cnc1NS(=O)(=O)c1cccnc1-c1ccc(-c2nnco2)cc1 [Zibotentan (ZD4054)]
False

Another compound: O=C(O)CCCN1CCC(OC(c2ccc(Cl)cc2)c2ccccn2)CC1.O=S(=O)(O)c1ccccc1 (centres undefined) [Bepotastine Besilate]
False

Another: `COc1ccc(C(=O)c2ccccc2)c(O)c1`
False

What would you report for CNC(=O)C(Cc1c[nH]c2ccccc12)NC(=O)C(CC(=O)NO)CC(C)C (centres undefined) ?
False

What about this compound? `CC(O)C(=O)O.CC(O)C(=O)O.CN1CCN(c2ccc3c(c2)NC(=C2C(=O)N=c4cccc(F)c4=C2N)N3)CC1`
True

Also `Cc1c(C(=O)NN2CCCCC2)nn(-c2ccc(Cl)cc2Cl)c1-c1ccc(Cl)cc1` ?
True

And then `CC(C)c1cc(C(=O)N2Cc3ccc(CN4CCN(C)CC4)cc3C2)c(O)cc1O` , what is it?
False

Further, for CNCC(O)c1ccc(O)c(O)c1 (centres undefined) ?
False

# iterate: CCCC(=O)Nc1ccc(OCC(O)CNC(C)C)c(C(C)=O)c1.Cl (centres undefined) [Acebutolol HCl]
False

Now the same for `COc1cc(CNC(=O)CCCCC=CC(C)C)ccc1O`
False

Query CCCCOc1ccc(OCCCN2CCOCC2)cc1.Cl [Pramoxine HCl] next
False

Proceed to `CNC(=O)c1cc(Oc2ccc(NC(=O)Nc3ccc(Cl)c(C(F)(F)F)c3)c(F)c2)ccn1`
True

###

Tested on: UCD52 (cells of a triple-negative basal-like breast cancer xenograft)
assay-overview: cell viability (% of vehicle); higher = less cytotoxic
experimental-conditions: 10 µM; 72 h
Can you tell me cell viability for the items I'm about to list?
Answer with a number only.

Query: cell viability; subject: `Cn1cnc2c(F)c(Nc3ccc(Br)cc3F)c(C(=O)NOCCO)cc21`
59.8

Check CC(=O)SCC(Cc1ccccc1)C(=O)NCC(=O)OCc1ccccc1 (configuration not stated) [Racecadotril] too.
65.6

Let us now turn to CC(Oc1cc(-c2cnn(C3CCNCC3)c2)cnc1N)c1c(Cl)ccc(F)c1Cl [(R)-Crizotinib]
23.1

CCOc1cc2ncc(C#N)c(Nc3ccc(OCc4ccccn4)c(Cl)c3)c2cc1NC(=O)C=CCN(C)C [Neratinib (HKI-272)] , same question.
23.2

Could you do the same for Nc1ncnc2c1ncn2C1OC(CO)C(O)C1O (configuration not stated) [Adenosine] , please?
95.7

Also, O=c1ccn(C2OC(CO)C(O)C2O)c(=O)[nH]1 (configuration not stated) [Uridine] please.
85.6

Item: Oc1ccc(OC2CCCCO2)cc1 (configuration not stated) [Deoxyarbutin]
129

###

Test system: HCI09 (cells of a triple-negative luminal androgen receptor type breast cancer xenograft)
assay-overview: cell viability (% of vehicle); higher = less cytotoxic
experimental-conditions: 10 µM; 72 h
measure-name: cell viability
I'd appreciate a reply containing only the number, no unit.

Looking for the measured cell viability of CC12CCC3c4ccc(O)cc4CCC3C1CCC2O (stereo not drawn) , can you help?
91.4

What do you have for CCC(C)C(=O)OC1CC(C)C=C2C=CC(C)C(CCC3CC(O)CC(=O)O3)C21 (stereo not drawn) ?
88.2

Moving on to `O=C(O)CCNC(=O)c1ccccc1`
87.5

###

Tested on: WHIM30 (cells of a triple-negative basal-like breast cancer xenograft)
assay-overview: cell viability (% of vehicle); higher = less cytotoxic
experimental-conditions: 10 µM; 72 h
I'd appreciate it if you could supply cell viability values for the items below.
A bare number is all that is needed in reply.

Provide the documented cell viability with WHIM30 as the system for CCC(CO)NCCNC(CC)CO.Cl.Cl (stereo unspecified) [Ethambutol HCl]
153

Also check `O=C(O)c1cc(O)c(O)c(O)c1`
84.5

Continue with CN1CCN(CCCN2c3ccccc3Sc3ccc(C(F)(F)F)cc32)CC1.Cl.Cl [Trifluoperazine 2HCl]
97.8

What would you report for `CNC(=O)[C@H](Cc1ccccc1)NC(=O)[C@H](CC(C)C)[C@H](CSc1cccs1)C(=O)NO` ?
175

Check CC1(C)SC2C(NC(=O)C(C(=O)[O-])c3ccccc3)C(=O)N2C1C(=O)[O-].[Na+].[Na+] (stereo unspecified) [Carbenicillin, Disodium Salt] too.
115

Same question, Cc1cccc(C)c1OCC(C)N.Cl (stereo unspecified) [Mexiletine HCl] this time
147

Input `CCCc1nc(C)c2c(=O)nc(-c3cc(S(=O)(=O)N4CCN(CC)CC4)ccc3OCC)[nH]n12`
107

Please answer likewise for `NC(N)=Nc1nc(CSCCC(N)=NS(N)(=O)=O)cs1`
165

Continue with `CC(C)(C)c1cc(C(C)(C)C)c(NC(=O)c2c[nH]c3ccccc3c2=O)cc1O`
200

Another compound to check: `Cc1cc(Nc2ncc(Cl)c(Nc3ccccc3S(=O)(=O)C(C)C)n2)c(OC(C)C)cc1C1CCNCC1`
29.3

Would you mind doing CC12C=CC(=O)NC1CCC1C2CCC2(C)C(C(=O)Nc3cc(C(F)(F)F)ccc3C(F)(F)F)CCC12 (stereo unspecified) [Dutasteride] as well?
142

Follow-up item: CCN1CCCC1CNC(=O)c1cc(S(N)(=O)=O)ccc1OC (stereo unspecified) [Levosulpiride]
100

Cool, now Cl.O=S(=O)(c1cccc2cnccc12)N1CCCNCC1 [Fasudil (HA-1077) HCl]
92.1

Note, next up: COc1ccc2c(O[C@H]3CC4C(=O)N(C)CCCC/C=C\[C@H]5C[C@@]5(C(=O)NS(=O)(=O)C5CC5)NC(=O)[C@@H]4C3)cc(-c3nc(C(C)C)cs3)nc2c1C (stereo partly specified)
28.5

Follow-up entry: Cn1nnc2c(C(N)=O)ncn2c1=O [Temozolomide]
107

Next entry: `O=C(NCCN1CCOCC1)c1ccc(Cl)cc1`
138

And what about the compound CC1(C)SC2C(NC(=O)C(N)c3ccccc3)C(=O)N2C1C(=O)O.O.O.O (stereo unspecified) [Ampicillin Trihydrate] ?
95.8

Request: CC(O)C(=O)O.CCOc1ccc2nc3cc(N)ccc3c(N)c2c1.O [Ethacridine lactate monohydrate]
76.2

Also check `CN1CCN(c2c(F)cc3c(=O)c(C(=O)O)cn4c3c2OCN4C)CC1`
148

// same read-out, input: CC(=O)N1CCN(c2ccc(OCC3COC(Cn4ccnc4)(c4ccc(Cl)cc4Cl)O3)cc2)CC1 (stereo unspecified)
122

Item: Cl.Cl.O=C1c2c(O)ccc(O)c2C(=O)c2c(NCCNCCO)ccc(NCCNCCO)c21 [Mitoxantrone HCl]
65.4
